TARGET OR SYSTEM: rat adrenergic α1B receptor (Rattus norvegicus, UniProt P15823)
Construct: rat adrenergic α1B receptor obtained from Wistar Rat liver; from tissue; host or cells: Wistar rat liver
Sequence (P15823 1-515): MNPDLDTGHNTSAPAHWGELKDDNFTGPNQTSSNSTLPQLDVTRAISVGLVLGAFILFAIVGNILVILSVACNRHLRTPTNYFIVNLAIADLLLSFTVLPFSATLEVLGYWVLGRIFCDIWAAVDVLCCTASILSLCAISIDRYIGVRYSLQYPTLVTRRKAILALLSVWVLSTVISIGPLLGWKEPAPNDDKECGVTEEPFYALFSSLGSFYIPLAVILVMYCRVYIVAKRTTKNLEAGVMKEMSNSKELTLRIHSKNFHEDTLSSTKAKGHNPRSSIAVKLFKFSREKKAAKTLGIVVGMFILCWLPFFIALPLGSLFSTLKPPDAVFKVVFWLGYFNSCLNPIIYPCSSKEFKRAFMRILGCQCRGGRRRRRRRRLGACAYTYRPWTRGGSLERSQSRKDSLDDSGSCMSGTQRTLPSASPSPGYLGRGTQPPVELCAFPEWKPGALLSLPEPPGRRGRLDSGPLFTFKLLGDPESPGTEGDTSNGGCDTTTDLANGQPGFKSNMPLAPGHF
EXPERIMENT SUMMARY: Radioligand binding, adrenergic α1B receptor ([3H]Prazosin)
CONDITIONS: 0.1 μM compound, Wistar rat liver, read-out: Percentage inhibition of ligand binding, Adrenergic α1B
OBSERVATION TYPE: inhibition at 0.1 µM (%)
Answer in %, number only, no unit symbol.

### Prompt Jot down inhibition at 0.1 µM (rat adrenergic α1B receptor (Rattus norvegicus, UniProt P15823)) of CC(=O)Nc1ccc(-c2cscc2-n2c3c(c4cc(C)ccc42)CN(C)CC3)cn1 [Compound 56] .
### Response 36

### Prompt Jot down inhibition at 0.1 µM (rat adrenergic α1B receptor (Rattus norvegicus, UniProt P15823)) of Cc1csc(-c2ccccc2-n2c3c(c4cc(C)ccc42)CN(C)CC3)c1 [Compound 36] .
### Response 13

### Prompt Jot down inhibition at 0.1 µM (rat adrenergic α1B receptor (Rattus norvegicus, UniProt P15823)) of Cc1ccc2c(c1)c1c(n2-c2ccc3ccncc3c2)CCN(C)C1 [Compound No. 74] .
### Response 41

### Prompt Jot down inhibition at 0.1 µM (rat adrenergic α1B receptor (Rattus norvegicus, UniProt P15823)) of Cc1ccc2c(c1)c1c(n2-c2ccccc2-c2cncc3ccccc23)CCN(C)C1 [Compound No. 87] .
### Response 13

### Prompt Jot down inhibition at 0.1 µM (rat adrenergic α1B receptor (Rattus norvegicus, UniProt P15823)) of Cc1ccc2c(c1)c1c(n2-c2cccc(-c3ccc(S(N)(=O)=O)cc3)c2)CCN(C)C1 [Compound No. 158] .
### Response 7

### Prompt Jot down inhibition at 0.1 µM (rat adrenergic α1B receptor (Rattus norvegicus, UniProt P15823)) of CC(=O)Nc1ccc(-c2ccc(-n3c4c(c5cc(C)ccc53)CN(C)CC4)nc2)cn1 [Compound No. 139] .
### Response 55

### Prompt Jot down inhibition at 0.1 µM (rat adrenergic α1B receptor (Rattus norvegicus, UniProt P15823)) of Cc1ccc2c(c1)c1c(n2-c2ccc(-c3cncc4ccccc34)cn2)CCN(C)C1 [Compound No. 135] .
### Response 59

### Prompt Jot down inhibition at 0.1 µM (rat adrenergic α1B receptor (Rattus norvegicus, UniProt P15823)) of Cc1ccc2c(c1)c1c(n2-c2cccc(-c3cnc(N(C)C)nc3)c2)CCN(C)C1 [Compound 42] .
### Response 10

### Prompt Jot down inhibition at 0.1 µM (rat adrenergic α1B receptor (Rattus norvegicus, UniProt P15823)) of Cc1ccc2c(c1)c1c(n2-c2cnc3ccccc3c2)CCN(C)C1 [Compound No. 88] .
### Response 36

### Prompt Jot down inhibition at 0.1 µM (rat adrenergic α1B receptor (Rattus norvegicus, UniProt P15823)) of Cc1ccc2c(c1)c1c(n2-c2ccc(-c3ccnn3C)cn2)CCN(C)C1 [Compound No. 146] .
### Response 70

### Prompt Jot down inhibition at 0.1 µM (rat adrenergic α1B receptor (Rattus norvegicus, UniProt P15823)) of Cc1ccc2c(c1)c1c(n2-c2ccc(-c3ccc(S(N)(=O)=O)cc3)cn2)CCN(C)C1 [Compound No. 145] .
### Response 86
